Source listed as ChEMBL document CHEMBL1201862.

# Tested on: KM12
# Measurement description: NCI tumour cell line growth inhibition, 48 h
Calls of active or inactive are those of the source. No stated cut-off is given here; in the data, active = GI50 up to about 1.1 µM and inactive = higher.
Readout name: GI50

Completed entries (count: 5):
Molecule	GI50
Cc1ccc2c(c1)OC1Nc3ccccc3C1=C2O (configuration not stated)	26.4 µM (inactive)
CC1=C(C(N)=O)C(c2ccncc2)C(C#N)=C2SCC(=O)N12 (configuration not stated)	> 100 µM (inactive)
O=C1C(Br)=C(C2=CC(=P(c3ccccc3)(c3ccccc3)c3ccccc3)C=C2)C(=O)C(Br)=C1C1=CC(=P(c2ccccc2)(c2ccccc2)c2ccccc2)C=C1	> 100 µM (inactive)
COc1ccc(OC)c(C(Cc2ccnc3ccccc23)Cc2ccnc3ccccc23)c1	7.29 µM (inactive)
CN1CCCCC1CCN1c2ccccc2Sc2ccc([S+](C)[O-])cc21 (configuration not stated)	> 100 µM (inactive)

Item: O=[N+]([O-])c1ccc(/C=N/n2c(S)nnc2CCc2nnc(S)n2/N=C/c2ccc([N+](=O)[O-])o2)o1 Test system: KM12 Read-out: GI50 Value: ?
22.8 µM (inactive)

Next entry: CC(N/N=N/c1ccc(-c2nc3ccccc3[nH]2)cc1)C(=O)O (configuration not stated)
19.2 µM (inactive)

Next entry: Clc1cc(N/N=C(/c2ccccc2)c2ncccn2)ncn1
43 µM (inactive)

---

# Test system: HL-60
# Measurement description: NCI tumour cell line growth inhibition, 48 h
Active and inactive are the calls of the source. Cut-off read from the data, not from the text of the source: active = GI50 up to about 1.1 µM and inactive = higher.
Readout name: GI50

Completed entries (count: 8):
Compound	GI50
C#CCSc1cnc2ccccc2c1Sc1c[nH]c2ccccc2c1=O	16.6 µM (inactive)
O=c1[nH]c(=O)n(C2CC(O)C(CO)O2)cc1/N=N/NCCCc1ccccc1 (stereo unspecified)	> 100 µM (inactive)
O=C1C(NS(=O)(=O)c2ccccc2)=C(n2cnc3ccccc32)C(=O)c2ccccc21	> 100 µM (inactive)
CCOC(=O)Cc1cc(=O)[nH]c(-n2[nH]c(C)c(CCO)c2=O)n1	> 100 µM (inactive)
CCOC(=O)NC(Nc1cccc(C(F)(F)F)c1)(C(F)(F)F)C(F)(F)F	> 100 µM (inactive)
COc1ccc(C(O)c2ccc3c(c2)OCO3)cc1 (stereo unspecified)	> 100 µM (inactive)
CC1(CO)OC1COCc1ccccc1 (stereo unspecified)	> 100 µM (inactive)
C=C1CC[C@@]2(C)[C@@H]([C@@H]1C)[C@H]1CC[C@@H]3[C@@]4(C)CC[C@H](O)C(C)(C)[C@@H]4CC[C@@]3(C)[C@]1(C)C[C@@H]2O	1.53 µM (inactive)

Could you now look at the following compound, please?
// lookup GI50 for Oc1cc(-c2ccc[nH]2)nc2cc3c(cc12)OCO3
26.9 µM (inactive)

---

# System: RPMI-8226
# Measurement description: NCI tumour cell line growth inhibition, 48 h
Active and inactive are the calls of the source. Cut-off read from the data, not from the text of the source: active = GI50 up to about 1.1 µM and inactive = higher. *1 amine or outer side, *2 acyl side, *3 side chain or, on linkers, in order; H or OH if unused. Where a SMILES comes first, the peptide text is derived from it. Bridges are numbered along the chain shown (N, C = ends). Roman numbers before positions name the chains, in order. [ ]: non-standard residue; d: D form. Actinocin(1to9) = Cc1c2oc3c(C)ccc(C(=O)[*:2])c3nc-2c(C(=O)[*:1])c(N)c1=O; NMeY = CN[CH](Cc1ccc(O)cc1)C(=O)O; Sar = CNCC(=O)O
// values below are reported GI50

Completed entries (count: 5):
Compound	Readout name	Reading
O=S1(=O)OCCOS(=O)(=O)C1Cc1nc2ccccc2[nH]1	GI50	34.3 µM (inactive)
O=c1/c(=C/c2ccccc2F)sc2nc3ccccc3n12	GI50	> 100 µM (inactive)
CCCCN(CCCC)/C(=N\C#N)NCc1ccccc1	GI50	13.7 µM (inactive)
COC(=O)c1c(O)ccc2c1c1c(n2Cc2cccc(C)c2)C(=O)c2ccccc2C1	GI50	12 µM (inactive)
COc1cc2c(NCCCCCO)ncnc2c(OC)c1OC	GI50	> 93.1 µM (inactive)

// lookup GI50 for CC(=O)OCc1cc(OC(C)=O)c2cc3c(OC(C)=O)cccc3c(OC(C)=O)c2c1
11.2 µM (inactive)

Next entry: CO[C@@H]1/C=C\C=C(/C)C(=O)NC2=CC(=O)C(NCCN(C)C)=C(C[C@@H](C)C[C@@H](OC)[C@@H](O)[C@H](C)/C=C(\C)[C@H]1OC(N)=O)C2=O
0.121 µM (active)

Next entry: CN1c2ccccc2C(=O)NC12CCN(CC1COc3ccccc3O1)CC2 (configuration not stated)
30.5 µM (inactive)

Next entry: CN(Nc1cc(=O)[nH]c(=O)[nH]1)c1ccccc1
> 100 µM (inactive)

Next entry: COc1c2occc2c(OC)c2c(=O)c(S(=O)(=O)NC(=O)Nc3ccc(Cl)cc3)coc12
> 10 µM (inactive)

Next entry: CC1=Cc2cccc(C)c2C(=O)C1=O
1.06 µM (active)

Next entry: O=C(NC12CC3CC(CC(C3)C1)C2)C(=O)c1c[nH]c2ccc([N+](=O)[O-])cc12
> 83 µM (inactive)

Next entry: O=[N+]([O-])c1ccc2ncccc2c1CCc1c([N+](=O)[O-])ccc2ncccc12
> 100 µM (inactive)

Next entry: O=S(=O)(Oc1ccc2oc3ccccc3c2c1-c1c(OS(=O)(=O)C(F)(F)F)ccc2oc3ccccc3c12)C(F)(F)F
> 100 µM (inactive)

Next entry: CCCCOC(=O)NC(Nc1ccc(S(=O)(=O)Nc2ccc(OC)nn2)cc1)(C(F)(F)F)C(F)(F)F
> 100 µM (inactive)

Next entry: COc1ccc(CC2C(=O)OC(C)C(NC(=O)c3c4nc5c(C(=O)NC6C(=O)NC(C(C)C)C(=O)N7CCCC7C(=O)N(C)CC(=O)N(C)C(Cc7ccc(OC)cc7)C(=O)OC6C)ccc(C)c5oc-4c(C)c(=O)c3N)C(=O)NC(C(C)C)C(=O)N3CCCC3C(=O)N(C)CC(=O)N2C)cc1 (configuration not stated) (I: TVP[Sar][NMeY](Me) / II: TVP[Sar][NMeY](Me); ester I:1-I:C, II:1-II:C; linker I:N-II:N via Actinocin(1to9); configuration not given here)
0.0121 µM (active)

Next entry: O=C1NCN(c2ccccc2)C12CCN(CCCN1CCN(CCOC(c3ccc(F)cc3)c3ccc(F)cc3)CC1)CC2
2.04 µM (inactive)

---

# Tested on: OVCAR-3
# Measurement description: NCI tumour cell line growth inhibition, 48 h
Activity calls are given as the source filed them. Rule as the data show it: active = GI50 up to about 1.1 µM and inactive = higher.
// values below are reported GI50

Completed entries (count: 8):
Molecule	GI50
O=C(/C=C1\Sc2ccccc2N=C1CC(=O)c1ccccc1)c1ccccc1	10.7 µM (inactive)
CC1OC(OC2C(O[C@@H]3C[C@@H]4CC[C@@H]5[C@H](CC[C@]6(C)C7C(C[C@@H]56)O[C@]5(CC[C@@H](C)CO5)[C@H]7C)[C@@]4(C)C[C@H]3O)OC(CO)C(O)C2O)C(O)C(O)C1O (stereo not given in full)	1.8 µM (inactive)
COc1ccc(C(=O)c2sc(Nc3ccccc3)nc2N)cc1	> 26.9 µM (inactive)
O=C(O)/C(=C\c1ccccc1)Cc1ccccc1	> 100 µM (inactive)
Cc1nc(-c2cccnc2)sc1C(=O)CC(=O)C(=O)Nc1cccc(NC(=O)C(=O)CC(=O)c2sc(-c3cccnc3)nc2C)n1	> 100 µM (inactive)
CCOc1ccccc1/N=C(/NC(=O)CC)SC	> 10 µM (inactive)
c1ccc2nn(C3CCCO3)nc2c1 (stereo not given)	> 100 µM (inactive)
CCCCP1(=O)C=CC(Cl)=C(C)C1 (stereo not given)	> 100 µM (inactive)

// lookup GI50 for Cc1oc2c(c1C)S(=O)(=O)C(C#N)=C(c1ccccc1)N2
> 100 µM (inactive)

Next entry: CN(C)CCNC(=O)c1cccc2[nH]c(-c3ccc(Cl)cc3)nc12
10.2 µM (inactive)

Next entry: CC(C(=O)c1ccccc1)C1(O)C(=O)Nc2ccccc21 (stereo not given)
> 100 µM (inactive)

Next entry: CC(C)=C1C(=O)C[C@]2(C)C/C=C(\C)CC/C=C(\C)CC[C@@H]12
8.53 µM (inactive)

Next entry: CC(=O)Nc1ccc(NCC(=O)Nn2cnc3ccc(S(=O)(=O)Nc4ccc(NC(C)=O)cc4)cc3c2=O)cc1
> 100 µM (inactive)

---

# System: IGROV-1
# Measurement description: NCI tumour cell line growth inhibition, 48 h
The source made the active and inactive calls. Cut-off read from the data, not from the text of the source: active = GI50 up to about 1.1 µM and inactive = higher.
Readout name: GI50

Completed entries (count: 5):
                                   compound              reading
0               C=CCNC1=C(C(=O)OCC)C(=O)CO1  > 100 µM (inactive)
1     O=C(N/N=C/c1ccc2c(c1)OCO2)Nc1ccccc1Cl    0.622 µM (active)
2  O=[N+]([O-])c1ccc2nc(Nc3ccccc3)c(Nc3ccccc3)nc2c1   1.58 µM (inactive)
3  C=CCN(CCNS(=O)(=O)c1ccc(C)cc1)S(=O)(=O)c1ccc(C)cc1   76.2 µM (inactive)
4    Cc1c2cc[n+](C)c(C)c2cc2c1[nH]c1ccccc12   7.98 µM (inactive)

// lookup GI50 for CCCCCCCCCCCCCC(=O)OCC1OC(=O)CC1O (stereo not given)
88.5 µM (inactive)

Next entry: COC1N(C2CC(O)C(CO)O2)C(=O)NC(=O)C1(F)Br (stereo not given)
14.1 µM (inactive)

Next entry: CC1(C)CC2=NC(SSC3=C(C#N)C(c4ccc(Br)cc4)C4=C(O)CC(C)(C)CC4=N3)=C(C#N)C(c3ccc(Br)cc3)C2=C(O)C1 (stereo not given)
> 100 µM (inactive)

Next entry: CSCCCS/C1=C/CCCCCCCCCC1
> 100 µM (inactive)

Next entry: Cc1cc(-c2c(F)cc3c4nn([C@H]5CC[C@@H](N(C)C)CC5)c(=O)c-4cn(C4CC4)c3c2F)cc(C)n1
1.66 µM (inactive)
